molecular target: Influenza virus A/Panama/2007/1999 (H3N2) (Influenza A virus A/Panama/2007/1999 (H3N2)); assay: cell-based or functional assay

[
  {
    "BINDER": "Group 62 representative clone F083-349, Fab-PP-type antibody (Fab, V domains shown) VH: QVQLVQSGAEVRKPGSSVKVSCKASGVIFIKFAISWVRQAPGQGLEWMGGIIPMFGTTNYAQKFQGRVTITADGSTNTVYMELSSLTSEDTAVYYCAKEEGYYYGSGPLDSWGQGTLVTVSS VL: DIVMTQSPDFLSVSLGERVTINCKSSQTVLNRSNNKNYLAWYQKKPGQPPRLLLYWSSTRESGVPDRFSGSGSETDFALTITNLQAEDLAVYFCQQFYDMPVTFGGGTKLEIK",
    "UNIT_OF_MEASURE": "%",
    "Neutralizing activity (%) at 100 µg/ml": 13.7
  },
  {
    "BINDER": "Group 51 representative clone F083-302, Fab-PP-type antibody (Fab, V domains shown) VH: QVQLVQSGAEVKKPGSSVKVSCEASGATFSSNAFSWVRQAPGQGPEWMGGIITMFRKAEYAQKFQGRVTITAGELGSTAYMEVRSLTFEDTAVYYCARHSGYHLIGYFDSWGQGTLVTVSS VL: QSVLTQPPSVSAAPGQKVTISCSGTTSNIGNNYVSWYQQLPGAAPKLLIYDNNKRPSGIPDRFSGSKSDTSATLGITGLQTGDEADYYCGTWVSSLSVWVFGGGTKLTVLG",
    "UNIT_OF_MEASURE": "%",
    "Neutralizing activity (%) at 100 µg/ml": 3.4
  },
  {
    "BINDER": "Group 3 representative clone F081-281, Fab-PP-type antibody (Fab, V domains shown) VH: QVQLVQSGSEVKKPGSSVKVSCSFKASGGIISKYAITWVRQAPGQGLEWMGGIIAIFGSTNYAQKFQGRLTITSDESTSTAYMELSSLTSEDTAVYYCGRGPHYYESHLDYWGQGTLVTVSS VL: EIVLTQSPGTLSLSPGERATLSCRASQGMSSSFLAWYQQKPGQPPRLLISGASTRATGIPDRFSGSGSGTDFTLTINRLEPEDFAVYYCQQYGSSPRTFGQGTKVEIK",
    "UNIT_OF_MEASURE": "%",
    "Neutralizing activity (%) at 100 µg/ml": -11.6
  }
]

These data points were gathered from patent US20160200799A1.
